# system.name: L-lactate dehydrogenase (Plasmodium falciparum (isolate CDC / Honduras))
# assay.procedure: PfLDH activity inhibition – cell lysate, 3D7 strain, counter-screen for P. falciparum growth inhibition project (AID 2304);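 further: 0% = vehicle and 100% = reference inhibitor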
# condition.context: P. falciparum 3D7 crude extract, LDH APAD/NBT absorbance; at 2 µM; stronger effect = higher value
observable: inhibition (%)
Please state the figure in %; there is no need to write the unit.

What does the data say about its inhibition? Entry: `C=CCOc1ccc(-c2c(C)[nH]c(C)c(Br)c2=O)cc1` -3

Then what about the molecule `O=C(Nc1ccc(Cl)c(Cl)c1)N1CCC(NCc2cccc([N+](=O)[O-])c2)CC1` ? 2

Then what about the molecule `N#Cc1ccc2c(c1)CCN(CCCn1c(-c3ccc4ccccc4c3)nc3ccncc31)CC2` ? 4

Then what about the molecule `c1cc(-c2ccc(CNCCCn3ccnc3)cc2)cc(-c2nc3ccccc3[nH]2)c1` ? 5

Then what about the molecule `N[C@@H](Cc1cc(I)c(Oc2ccc(O)c(Cl)c2)c(I)c1)C(=O)O` ? -2

Then what about the molecule `Cc1ccc(NC(=O)c2ccc(CN3CCCN(CCC(C)C)CC3)cc2)cc1F` ? 1

Then what about the molecule `CCCNCCc1ccc(NS(=O)(=O)c2cccc(-c3ccc(Cl)cc3)c2)cc1` ? 0

Then what about the molecule `Cc1ccc(Cn2ncc(N3CCC(N)CC3)c(Cl)c2=O)cc1NC(=O)Nc1ccc(-c2ccccc2)cc1` ? -5

Then what about the molecule `CC(C)c1sc(N2CCN(C)CC2)nc1C(=O)NCCc1ccc(Br)cc1` ? -1

Then what about the molecule `CCOC(=O)c1ccc(NC(=O)Nc2ccc(-c3cccc(-c4nc5ccccc5[nH]4)c3)cc2)cc1` ? -4

Then what about the molecule CCOc1cc2c(cc1OCC)C(c1cc(OC)c(O)cc1Cl)NCC2 (centres undefined) ? -7

Then what about the molecule `C[C@@H]1CN(c2cccc3c2nc(-c2cncc(C#N)c2)n3CCNCc2ccccc2)C[C@H](C)O1` ? 5

Then what about the molecule `COc1cc2nc(N3CCC(CNC(=O)c4cccc5cc[nH]c45)CC3)nc(N)c2cc1OC` ? -3

Then what about the molecule `CN(C)CCN(C)Cc1cccc(-c2ccc3c(Nc4cc(O)c(Cl)cc4F)ccnc3c2)c1` ? -5

Then what about the molecule `COc1cc2nc(N3CCC(CNC(=O)c4ccc(-c5ccc(O)cc5)cc4)CC3)nc(N)c2cc1OC` ? -2

Then what about the molecule `COc1ccc(CNC2CCN(C)CC2)cc1-c1ccc(S(=O)(=O)NCc2ccccc2)c(C)c1` ? 3

Then what about the molecule `CCC(N)(C#Cc1ccc(-c2c(C)[nH]c(C)c(Br)c2=O)cc1)CC` ? -1

Then what about the molecule CC(N)(Cc1ccc(O)cc1)c1nn[nH]n1 (centres undefined) ? 4

Then what about the molecule `CCN(CC)C(=NCCCCCCN=C(NC(N)=NCc1ccc(Cl)cc1Cl)N(CC)CC)NC(N)=NCc1ccc(Cl)cc1Cl` ? -3

Then what about the molecule `c1cc(-c2nc3ccccc3[nH]2)nc(-c2nc3ccccc3[nH]2)c1` ? 0

Then what about the molecule `NC(=O)N1CCN(Cc2ccc(Br)cc2)CC1` ? -5

Then what about the molecule `O=C(Nc1ccc(C(F)(F)F)cc1)c1ccc(NCCCN2CCCCCC2)c([N+](=O)[O-])c1` ? -5

Then what about the molecule `N#Cc1cccc(NC(=O)Nc2ccc3c(c2)CCN(C2CCC2)CC3)c1` ? -3

Then what about the molecule CN(C)Cc1ccc(-c2cccc(Nc3nccc(NCC(O)c4ccccc4)n3)c2)cc1 (centres undefined) ? -1

Then what about the molecule `Clc1ccc(Cl)c2[nH]c(CNCCCNc3nc4ccccc4[nH]3)cc12` ? -6

Then what about the molecule `COc1ccc2nccc([C@@H](O)CN3CCC(NC(=O)c4cc5c(Cl)cc(Cl)cc5[nH]4)CC3)c2c1` ? -3

Then what about the molecule `CCOc1ccc2nc3cc([N+](=O)[O-])ccc3c(N)c2c1` ? 3

Then what about the molecule `Cc1noc(C)c1-c1cccc(CNCc2cccc(-c3cccc(-c4nc5ccccc5[nH]4)c3)c2)c1` ? 2

Then what about the molecule `Cc1cc(I)ccc1Nc1nc2nonc2nc1Nc1ccc(I)cc1C` ? -2

Then what about the molecule CCCNC(=O)C1Cc2c([nH]c3cc(Br)ccc23)C2(CCN(CCc3ccccc3)CC2)N1 (centres undefined) ? -1

Then what about the molecule CC1(C)N=C(N)N=C(N)C1c1ccc(Cl)c(Cl)c1 (centres undefined) ? -6

Then what about the molecule `Cc1cccc(-c2cccc3c(NC(=O)N4CCc5cc6nccc(N7CCN8CCC[C@H]8C7)c6cc54)cccc23)n1` ? -6

Then what about the molecule `CNCCNCc1ccc(-c2cccc(-c3nc4ccc(F)cc4[nH]3)c2)cc1` ? -1

Then what about the molecule `CN(C)CCCN(C)c1cccc2c1nc(-c1cccnc1)n2CCNCc1ccccc1` ? 4

Then what about the molecule `CCOC(=O)c1[nH]c(-c2cccc(F)c2)nc1N` ? 9

Then what about the molecule `O=C(NCCc1ccccc1)N(Cc1cccc(-c2ccc(CNCc3ccc4c(c3)OCO4)cc2)c1)C1CCN(Cc2ccccc2)CC1` ? -2

Then what about the molecule CCCCCCNC(=O)C1Cc2c([nH]c3ccc(Br)cc23)C2(CCN(CCc3ccccc3)CC2)N1 (centres undefined) ? 0

Then what about the molecule `COc1ccc(NC(=O)N2CCCN(CCCCCNC(=O)/C=C/c3ccc(Cl)cc3)CC2)cc1Cl` ? 1

Then what about the molecule O=C(C=Cc1ccc(Cl)c(Cl)c1)NCCCCCN1CCCC(CCCNC(=O)[C@@H]2C[C@H]2c2ccccc2)C1 (some centres undefined) ? -1
